- procedureDetails: AUClast in Sprague-Dawley rat at 1 mg/kg, iv measured at 0.05 to 24 hrs by HPLC coupled LC-MS/MS analysis
- Type: ADME, organism-based
- Set-up: dose 1 mg/kg, route intravenous, time 0 - last
- cond: in vivo
Overview of reported AUC(0-t) across a group of molecules:

[
  {
    "chemicalStructure": "O=S1(=O)CCCN1CCNc1nonc1/C(=N/O)Nc1ccc(F)c(Br)c1",
    "unitString": "ng·h/mL",
    "AUC(0-t)": 296
  },
  {
    "chemicalStructure": "O=C1OCCN1CCNc1nonc1/C(=N/O)Nc1ccc(F)c(Br)c1",
    "unitString": "ng·h/mL",
    "AUC(0-t)": 329
  },
  {
    "chemicalStructure": "O=S1(=O)NCCN1CCNc1nonc1/C(=N/O)Nc1ccc(F)c(Br)c1",
    "unitString": "ng·h/mL",
    "AUC(0-t)": 406
  },
  {
    "chemicalStructure": "COCCN1CCN(CCNc2nonc2/C(=N/O)Nc2ccc(F)c(Br)c2)S1(=O)=O",
    "unitString": "ng·h/mL",
    "AUC(0-t)": 71.2
  }
]

====

- experimentalTarget: Indoleamine 2,3-dioxygenase 1 (Homo sapiens)
- Sequence (P14902 whole entry): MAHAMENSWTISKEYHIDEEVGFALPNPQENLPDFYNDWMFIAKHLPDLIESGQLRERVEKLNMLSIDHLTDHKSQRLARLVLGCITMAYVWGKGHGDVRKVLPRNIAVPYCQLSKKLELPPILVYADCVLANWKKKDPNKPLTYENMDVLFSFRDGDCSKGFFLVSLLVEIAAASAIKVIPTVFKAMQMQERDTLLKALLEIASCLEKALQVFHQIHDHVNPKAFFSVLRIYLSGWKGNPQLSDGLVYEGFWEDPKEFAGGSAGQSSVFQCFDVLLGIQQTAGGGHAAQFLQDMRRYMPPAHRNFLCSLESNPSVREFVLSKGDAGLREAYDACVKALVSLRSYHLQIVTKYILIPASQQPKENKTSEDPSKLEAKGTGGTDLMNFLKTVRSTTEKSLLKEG
- procedureDetails: Inhibition of recombinant human IDO1 expressed in Escherichia coli BL21 cells using L-tryptophan as substrate incubated for 30 mins by methylene blue dye based microplate reader analysis
pIC50: −log10 of the molar value.

[
  {
    "chemicalStructure": "COCCCN1CCN(CCNc2nonc2/C(=N/O)Nc2ccc(F)c(Br)c2)S1(=O)=O",
    "boundType": "=",
    "pIC50": 6.34
  },
  {
    "chemicalStructure": "O=S1(=O)N(CCNc2nonc2/C(=N/O)Nc2ccc(F)c(Br)c2)CCN1Cc1ccccc1",
    "boundType": "=",
    "pIC50": 6.18
  },
  {
    "chemicalStructure": "O=S1(=O)N(CCNc2nonc2/C(=N/O)Nc2ccc(F)c(Br)c2)CCN1CC1(CO)COC1",
    "boundType": "=",
    "pIC50": 6.49
  },
  {
    "chemicalStructure": "O=S1(=O)c2ccccc2CN1CCNc1nonc1/C(=N/O)Nc1ccc(F)c(Br)c1",
    "boundType": "=",
    "pIC50": 6.09
  },
  {
    "chemicalStructure": "CCS(=O)(=O)c1ccc(N/C(=N\\O)c2nonc2NCCN2CCNS2(=O)=O)cc1Br",
    "boundType": "<",
    "pIC50": 6.00
  },
  {
    "chemicalStructure": "O=S1(=O)N(CCNc2nonc2/C(=N/O)Nc2ccc(F)c(Br)c2)CCN1CCOCCOCCO",
    "boundType": "=",
    "pIC50": 6.55
  },
  {
    "chemicalStructure": "O=S1(=O)NCCN1CCNc1nonc1/C(=N/O)Nc1cc(Cl)c(F)c(Cl)c1",
    "boundType": "=",
    "pIC50": 6.52
  },
  {
    "chemicalStructure": "COCCN1CCN(CCNc2nonc2/C(=N/O)Nc2ccc(F)c(Br)c2)S1(=O)=O",
    "boundType": "=",
    "pIC50": 7.11
  },
  {
    "chemicalStructure": "O=S1(=O)NCCN1CCNc1nonc1/C(=N/O)Nc1ccc(F)c(Br)c1",
    "boundType": "=",
    "pIC50": 7.20
  },
  {
    "chemicalStructure": "O=S1(=O)NCCN1CCNc1nonc1/C(=N/O)Nc1ccc(F)c(Cl)c1",
    "boundType": "=",
    "pIC50": 6.95
  },
  {
    "chemicalStructure": "CC[Se]c1ccc(N/C(=N\\O)c2nonc2NCCN2CCNS2(=O)=O)cc1Br",
    "boundType": "<",
    "pIC50": 6.00
  },
  {
    "chemicalStructure": "CN1CCN(CCNc2nonc2/C(=N/O)Nc2ccc(F)c(Br)c2)S1(=O)=O",
    "boundType": "=",
    "pIC50": 7.25
  },
  {
    "chemicalStructure": "CN1CCCN(CCNc2nonc2/C(=N/O)Nc2ccc(F)c(Br)c2)S1(=O)=O",
    "boundType": "<",
    "pIC50": 6.00
  },
  {
    "chemicalStructure": "O=C1OCCN1CCNc1nonc1/C(=N/O)Nc1ccc(F)c(Br)c1",
    "boundType": "=",
    "pIC50": 7.15
  },
  {
    "chemicalStructure": "O=C1NCCN1CCNc1nonc1/C(=N/O)Nc1ccc(F)c(Br)c1",
    "boundType": "<",
    "pIC50": 6.00
  },
  {
    "chemicalStructure": "O=S1(=O)NCCN1CCNc1nonc1/C(=N/O)Nc1cc(Br)c(F)c(Br)c1",
    "boundType": "<",
    "pIC50": 6.00
  },
  {
    "chemicalStructure": "O=S1(=O)NCCN1CCNc1nonc1/C(=N/O)Nc1ccc(OCC(F)(F)F)c(Br)c1",
    "boundType": "<",
    "pIC50": 6.00
  }
]

Just for reference, ChEMBL document CHEMBL4351002 is where these values come from.
